Biological target: glycosylated human PAI-1 (active form) (human, UniProt P05121 24-402, glycosylated)
Sequence (P05121 24-402 limits assumed): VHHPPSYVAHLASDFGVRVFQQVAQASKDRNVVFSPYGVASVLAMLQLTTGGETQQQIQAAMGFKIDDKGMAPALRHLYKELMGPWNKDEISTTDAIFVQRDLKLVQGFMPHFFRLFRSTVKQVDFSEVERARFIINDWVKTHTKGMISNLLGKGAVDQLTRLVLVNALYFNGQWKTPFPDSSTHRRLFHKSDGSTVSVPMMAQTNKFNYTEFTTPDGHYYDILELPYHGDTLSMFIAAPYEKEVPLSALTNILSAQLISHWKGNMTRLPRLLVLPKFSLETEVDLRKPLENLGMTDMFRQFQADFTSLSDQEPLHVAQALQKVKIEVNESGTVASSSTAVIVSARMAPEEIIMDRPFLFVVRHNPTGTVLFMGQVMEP
Assay: cell-based or functional assay
Measured Chromogenic Assays, listed per entry for reference.
The reply must contain the numeric value and, after it, the unit.

# annotated cases, reported Chromogenic Assays shown
E21 (antibody, mouse IgG2b, V domains shown, mouse IgG2b; also called mE21; E21 (IgG2b)) VH: EVQLQQSGAELVRSGASVKLSCTASGFNIKDYYMHWVKQRPEQGLEWIGWIDPENGDTEYDPKFQAKATMTADTSSNTAYLQLSSLTSEDTAVYYCMYGNYPYYFDYWGQGTTLTVSS VL: DIQMTQTTSSLSASLGDRVTISCRASQDISNYLNWYQQKPDGTVKLLIYYTSRLHSGVPSRFSGSGSGTDYSLTISNLEQEDIATYFCQQGNTLPWTFGGGTKLEIK
1.3 nM
B28 (antibody, mouse IgG2b, V domains shown, mouse IgG2b/kappa; also called mB28; B28 (IgG2b/k)) VH: QVQLQQSGAELMKPGASVKISCKATGYTFSISWIEWIKQRPGGLEWIGKILPGSGGANYNEKFKGKATVTADTSSNTVYMQLSSLTSEDSAVYYCARLSTGTRGAFDYWGQGTTLTVSS VL: DIQLTQSPASLSASVGATVTITCRASENVYSYLAWYQQKQGKSPQLLVYNAKTLAEGVPSRFSGSGSGTQFSLKINYLQPEDFGSYYCQHHYGTPPTFGGGTKVEIKR
1.8 nM
E16 (antibody, mouse IgG1, V domains shown, mouse IgG1; also called mE16; E16 (IgG1)) VH: EVKLVESGGGLVKPGGSLKLSCAASGFTFSNYGMSWVRQTPEKGLGWVASLRTGGNTYYSDSVKGRFTISRDNDRNILYLQMSSLTSEDTAVYYCARGLRHWGYFDVWGAGTTVTVSS VL: DIVMTQSHKFMSTSVGDRVNITCKASQDVSTAVGWYQQEPGQSPKLLIYSASNRHTGVPDRFTGSGSGTDFTFTISSVQAEDLAVYYCQQHYSSPWTFGGGTKLEIK
1.1 nM

Prompt: Suppose we examine the binder C45 (antibody, mouse IgG2b, V domains shown, mouse IgG2b; also called mC45; C45 (IgG2b)) VH: QVQLQQSGVELVRPGTSVKVSCKASGYAFTNYLIEWIKQRPGQGLEWIGVIHPGSGVTNYNEKFKGKAILTADKSSSTAYMQLSSLTSDDSAVYFCARDYYGSSHGLMDYWGQGTSVTVSS VL: DIKMTQSPSSMYASLGERVTITCKASQDINSYLSWFQQKPGKSPKTLIYRANRLVDGVPSRFSGSGSGQDYSLTISSLEYEDMGIYYCLQYDEFPRTFGGGTKLEIK ; what Chromogenic Assays value has been reported?
Response: 0.5 nM
